# protocol: recombinant barcode read abundance after kanamycin selection (control-corrected) (log10(CPM+1)); higher = more efficient recombination; sequences stand for … in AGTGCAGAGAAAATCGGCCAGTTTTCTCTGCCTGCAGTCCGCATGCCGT…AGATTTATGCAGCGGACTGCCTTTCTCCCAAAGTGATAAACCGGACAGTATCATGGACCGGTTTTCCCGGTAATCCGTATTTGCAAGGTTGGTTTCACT; site = the 11-nt target;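 note: IS621 recombinase and bridge RNA in Escherichia coli cells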
Each item that follows carries a reported recombinant barcode read abundance (log10).
experimental-endpoint: recombinant barcode read abundance (log10)

sequence-code: CTCGTTGCTTGGGTTCTAACCTGTTGCCT (site ATCGTTGCTAG)
endpoint-result: 0.0725
--
sequence-code: ACTAGGACTTGGGTTCTAACCTGTTGCGG (site ACTAGGACTAC)
endpoint-result: 0.0821
--
sequence-code: GTCTATACTTGGGTTCTAACCTGTTGCCT (site GTTTATACTAG)
endpoint-result: 0.311
--
sequence-code: CTTAGGGCTTGGGTTCTAACCTGTTGCCT (site CTTAGGGCTAG)
endpoint-result: 0.419
--
sequence-code: AAGTCCTCTTGGGTTCTAACCTGTTGCTG (site AAGTCCTCTCA)
endpoint-result: 1.43
--
sequence-code: TCCCGTACTTGGGTTCTAACCTGTTGCAT (site TCCTGTACTAT)
endpoint-result: 0.159
--
sequence-code: TGCGCCACTTGGGTTCTAACCTGTTGCCT (site TGCGCAACTAG)
endpoint-result: 0.113
--
sequence-code: TCTGTATCTTGGGTTCTAACCTGTTGCCT (site ACTGTATCTAG)
endpoint-result: 0.28
--
sequence-code: GTCTATGCTTGGGTTCTAACCTGTTGCGT (site GTCTAAGCTAA)
endpoint-result: 0.0746
--
sequence-code: TAGGCTCCTTGGGTTCTAACCTGTTGCAG (site TAGGCTCCTAT)
endpoint-result: 0.271
--
sequence-code: GACATACCTTGGGTTCTAACCTGTTGCCT (site GACTTACCTAG)
endpoint-result: 0.251
--
sequence-code: TGTCCACCTTGGGTTCTAACCTGTTGCCT (site CGTCCACCTAG)
endpoint-result: 0.267
--
sequence-code: GAAGTACCTTGGGTTCTAACCTGTTGCCT (site GAAGTACCTAG)
endpoint-result: 1.92
--
sequence-code: CGTCCGACTTGGGTTCTAACCTGTTGCAT (site CGTACGACTAT)
endpoint-result: 0.0562
--
sequence-code: CTAAGAGCTTGGGTTCTAACCTGTTGCCA (site CTAAGCGCTTG)
endpoint-result: 0.109
--
sequence-code: GTAACCTCTTGGGTTCTAACCTGTTGCCG (site GTAACCTCTGG)
endpoint-result: 0.0296
--
sequence-code: CCGGATGCTTGGGTTCTAACCTGTTGCCT (site CCGGATGCTAG)
endpoint-result: 0.775
--
sequence-code: GCCCGGGCTTGGGTTCTAACCTGTTGCCG (site GCCGGGGCTCG)
endpoint-result: 0.0496
--
sequence-code: ACATGATCTTGGGTTCTAACCTGTTGCCT (site ACAATATCTAG)
endpoint-result: 0.0106
--
sequence-code: AGTAAGACTTGGGTTCTAACCTGTTGCAT (site AGTAAGACTAT)
endpoint-result: 1.41
--
sequence-code: TGGTCGGCTTGGGTTCTAACCTGTTGCAC (site TAGTCAGCTGT)
endpoint-result: 0.0913

# credit: the supplement of paper PMC11208160
